Numbers sourced from the EternaBench riboswitch data.

Test system: MS2 coat protein
Assay: apparent Kd, MS2 coat protein; higher = weaker binding; RNA-MaP array
Conditions: designed as: OFF switch for flavin mononucleotide; no ligand
Task for the reader: assign each of the following sequences its reported apparent Kd.
Write down the numeric answer in nM and omit the unit.

Sample AGUGCAAAUGUAGGAUAUGGACAUGAGGAUCACCCAUGUCAUUAAUAUUAUCGGUCCAAUUUUCUCCAGAAGGACAAAGGCUUG , system: MS2 coat protein. Its apparent Kd is 11.6

Reported MS2 coat protein apparent Kd for item ACAUGAGGAUCACCCAUGUUCUCAAGUAUAAUAGAUAAAUCAAGAAGGGCUAAUCGACCGAAUAAGCAGGAUAUUGUGAUAUGG was 18.3

The recorded apparent Kd with MS2 coat protein for AAUAUGUAAGGAUAUACUGAAAUAAUAAUAAUAAUAAAUGAGUAGAAGGAACAUGAGGAUCACCCAUGUGAAAC was 8.71

MS2 coat protein apparent Kd of CCUAGACAAGAGAAGGUUGAGAAGAAACUUUGCAAAGGAUAUCUAAACAUGAGGAUCACCCAUGUCGAUAUAUGGGUAGGCGAA is 102

The reported apparent Kd value, MS2 coat protein, for AUCUUUGUAGGAUAUCCUGAGGCAAACAUGAGGAUCACCCAUGUCCCAAGAAUGACUAAAGGAGAAGGACACUCGG reads 20.6

Observed apparent Kd, MS2 coat protein, UGAAAACCGUCAUAAACAAACAUGAGGAUCACCCAUGUAGCUAAGGAUAUUGACAAACAAAGACUCAAGAAGGUAGAACCUACA : 7.99

----------
Tested on: MS2 coat protein
Assay: apparent Kd, MS2 coat protein; higher = weaker binding; RNA-MaP array; FMN 200 µM where present
Settings: ligand present: flavin mononucleotide; designed as: OFF switch for flavin mononucleotide
Answer label 0 if apparent Kd is under 60 nM, and label 1 if it is 60 nM or more.

## Input Please tell me: is the sequence CGCUCAAUUCUUUAGGUUAGAAUCAGAAGGCGUAACAUGAGGAUCACCCAUGUAUAGAAGUGUAACGAGGAUAUGAAUUGAGCG at or over 60 nM in terms of apparent Kd?
## Output label 0

## Input State whether the measured apparent Kd reaches 60 nM, counting equality as reaching it, for ACGAGGGUUACAGGAUAUGAAGCUAAAACGGCGUUAGAAGGGUAUACAGAGUUACAUGAGGAUCACCCAUGUUGUGACUUCGAA
## Output label 0

## Input API: above_or_equal(metric=apparent Kd, cutoff=60 nM) for item GACAUUAUAGGAUAUACAUGAGGAUCACCCAUGUCCGGCGGCCACCGCCAUUCACUGUGUAGAAGGGUAGUUUG
## Output label 1

## Input Exam item: decide whether the reported apparent Kd for CGGCACCAAGGAUAUACAUGAGGAUCACCCAUGUUUUUUGGGCCCUUAAAAUCUACGUGUAGAAGGUGGGUCGA is at least 60 nM.
## Output label 0

## Input Entry CGCUGGUGAGGAUAUGGGUGUGGUUACAUGAGGAUCACCCAUGUGGUGUCGCGCGUGGGUCCAGAAGGCGCGGGUG : is its apparent Kd no less than 60 nM?
## Output label 1

## Input I'd appreciate it if you could say whether UAUAUUUAUGUAGGAUAUGGUCUAUAAAAUAGACCAGAAGGACAUGAGGAUCACCCAUGUAUGAAAUUCCAUAAUUGCCGUGUA has apparent Kd at least equal to 60 nM.
## Output label 0

## Input Decide: apparent Kd of AAUUCACAUGAGGAUCACCCAUGUCAGGAUAUGCUGACGCGGGUUUCGGUGCGUGUUGGCAGAAGGGACAGCUA >= 60 nM?
## Output label 1

## Input Given the entry UCAUUGAUUGUGAGGAUAUCGAUGUGAUGGUUUGUCGAGAAGGCACAUGAGGAUCACCCAUGUUUGUUUGGGCU , answer whether its apparent Kd meets or surpasses 60 nM.
## Output label 1

## Input Does the reported apparent Kd for GGAAAUCAUGUAGGAUAUGCAUGGCGAAGCUACGCAGAAGGACAUGAGGAUCACCCAUGUUAUAGCGUCCGAGAAAGGAUGCAA fall at or above the 60 nM mark?
## Output label 1

## Input Given the entry AGCUGGUGACAGCAUCGAGCAAAACAUGAGGAUCACCCAUGUAGAAGGCUGUACGGUUACCGUACAGAGGAUAUACAUAGCUCG , answer whether its apparent Kd meets or surpasses 60 nM.
## Output label 0
